# assay_method_text: Rat plasma pharmacokinetics after single-dose vehicle/SLE and digoxin or GE
# Assay type: in vivo, Sprague-Dawley rats
# condition_label: female, Sprague-Dawley, rat, plasma, po, rats, single SLE 500 mg/kg ig, 2 h later digoxin 0.5 mg/kg or GE 120 mg/kg ig
value_kind: Cmax (ng/mL)
Note: unit ng/mL is implicit; provide only the numeric part.

[ask] Could you tell me which Cmax is on file for C[C@H]1O[C@@H](O[C@H]2[C@@H](O)C[C@H](O[C@H]3[C@@H](O)C[C@H](O[C@H]4CC[C@@]5(C)[C@H](CC[C@@H]6[C@@H]5C[C@@H](O)[C@]5(C)[C@@H](C7=CC(=O)OC7)CC[C@]65O)C4)O[C@@H]3C)O[C@@H]2C)C[C@H](O)[C@@H]1O [Digoxin, digoxin, reference compound] ?
[reply] 17.5

* * *

# assay_method_text: Rat plasma pharmacokinetics after single-dose vehicle/SLE and digoxin or GE
# Assay type: in vivo, Sprague-Dawley rats
# condition_label: rats, single SLE 500 mg/kg ig, 2 h later digoxin 0.5 mg/kg or GE 120 mg/kg ig
value_kind: Cl_F_obs (L/h)
Provide only the numeric value, understood in L/h.

[ask] Need Cl_F_obs, item CC(C)=CCC[C@](C)(O[C@@H]1O[C@H](CO[C@@H]2OC[C@H](O)[C@H](O)[C@H]2O)[C@@H](O)[C@H](O)[C@H]1O)[C@H]1CC[C@]2(C)[C@@H]1[C@H](O)C[C@@H]1[C@@]3(C)CC[C@H](O[C@@H]4O[C@H](CO)[C@@H](O)[C@H](O)[C@H]4O[C@@H]4O[C@H](CO)[C@@H](O)[C@H](O)[C@H]4O)C(C)(C)[C@@H]3CC[C@]12C [Rb2, ginsenoside Rb2]
[reply] 0.004

* * *

# experimental_target: human MDR1-encoded P-gp (L-MDR1 cells) (Homo sapiens)
# Sequence (P08183 whole entry): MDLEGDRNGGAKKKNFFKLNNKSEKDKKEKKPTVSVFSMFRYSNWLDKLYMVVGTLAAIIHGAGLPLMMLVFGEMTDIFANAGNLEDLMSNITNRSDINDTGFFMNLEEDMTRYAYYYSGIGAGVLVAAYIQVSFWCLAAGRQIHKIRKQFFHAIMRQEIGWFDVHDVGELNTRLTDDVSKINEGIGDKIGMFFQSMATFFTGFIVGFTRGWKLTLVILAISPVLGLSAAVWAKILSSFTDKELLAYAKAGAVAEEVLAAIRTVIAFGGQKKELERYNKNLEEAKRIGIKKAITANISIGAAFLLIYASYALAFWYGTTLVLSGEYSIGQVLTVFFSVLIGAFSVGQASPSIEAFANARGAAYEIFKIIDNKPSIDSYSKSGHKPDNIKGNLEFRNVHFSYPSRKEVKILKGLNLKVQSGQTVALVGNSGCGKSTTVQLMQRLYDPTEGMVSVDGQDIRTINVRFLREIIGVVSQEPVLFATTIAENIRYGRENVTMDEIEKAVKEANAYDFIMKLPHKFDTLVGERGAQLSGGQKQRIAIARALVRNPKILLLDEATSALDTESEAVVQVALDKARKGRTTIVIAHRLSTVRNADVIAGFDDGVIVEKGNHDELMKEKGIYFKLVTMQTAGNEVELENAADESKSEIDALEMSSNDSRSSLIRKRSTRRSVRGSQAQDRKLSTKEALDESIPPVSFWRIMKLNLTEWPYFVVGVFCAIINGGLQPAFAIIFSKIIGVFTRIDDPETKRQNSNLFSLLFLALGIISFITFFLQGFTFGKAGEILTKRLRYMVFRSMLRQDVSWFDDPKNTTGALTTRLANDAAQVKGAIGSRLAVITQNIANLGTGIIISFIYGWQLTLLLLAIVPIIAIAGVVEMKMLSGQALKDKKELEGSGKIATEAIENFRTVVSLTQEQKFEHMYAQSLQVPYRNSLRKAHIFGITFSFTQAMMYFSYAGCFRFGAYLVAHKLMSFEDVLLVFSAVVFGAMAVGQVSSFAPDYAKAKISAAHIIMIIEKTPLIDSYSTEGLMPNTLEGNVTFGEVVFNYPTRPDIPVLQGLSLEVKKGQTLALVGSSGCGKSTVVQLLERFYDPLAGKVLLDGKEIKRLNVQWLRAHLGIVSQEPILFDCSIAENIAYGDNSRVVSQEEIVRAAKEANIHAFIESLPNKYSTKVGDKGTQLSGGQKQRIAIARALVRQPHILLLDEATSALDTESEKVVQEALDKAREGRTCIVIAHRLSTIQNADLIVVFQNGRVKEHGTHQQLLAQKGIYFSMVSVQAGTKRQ
# assay_method_text: Uptake (intracellular concentration) of digoxin and ginsenosides in L-MDR1 cells
# Type: in vitro ADME
# condition_label: 2.0 µg/mL SLE
// values below are reported Increase of intracellular concentration by SLE

Worked set:
[[record]]
compound = "CC(C)=CCC[C@](C)(O[C@@H]1O[C@H](CO[C@@H]2O[C@H](CO)[C@@H](O)[C@H](O)[C@H]2O)[C@@H](O)[C@H](O)[C@H]1O)[C@H]1CC[C@]2(C)[C@@H]1[C@H](O)C[C@@H]1[C@@]3(C)CC[C@H](O[C@@H]4O[C@H](CO)[C@@H](O)[C@H](O)[C@H]4O[C@@H]4O[C@H](CO)[C@@H](O)[C@H](O)[C@H]4O)C(C)(C)[C@@H]3CC[C@]12C [Rb1, ginsenoside Rb1]"
experimental_target = "human MDR1-encoded P-gp (L-MDR1 cells) (Homo sapiens)"
result_value = "2.9 fold"

[[record]]
compound = "CC(C)=CCC[C@](C)(O[C@@H]1O[C@H](CO[C@@H]2OC[C@H](O)[C@H](O)[C@H]2O)[C@@H](O)[C@H](O)[C@H]1O)[C@H]1CC[C@]2(C)[C@@H]1[C@H](O)C[C@@H]1[C@@]3(C)CC[C@H](O[C@@H]4O[C@H](CO)[C@@H](O)[C@H](O)[C@H]4O[C@@H]4O[C@H](CO)[C@@H](O)[C@H](O)[C@H]4O)C(C)(C)[C@@H]3CC[C@]12C [Rb2, ginsenoside Rb2]"
experimental_target = "human MDR1-encoded P-gp (L-MDR1 cells) (Homo sapiens)"
result_value = "2.0 fold"


[ask] Bench note: what Increase of intracellular concentration by SLE did CC(C)=CCC[C@](C)(O[C@@H]1O[C@H](CO[C@@H]2O[C@@H](CO)[C@H](O)[C@H]2O)[C@@H](O)[C@H](O)[C@H]1O)[C@H]1CC[C@]2(C)[C@@H]1[C@H](O)C[C@@H]1[C@@]3(C)CC[C@H](O[C@@H]4O[C@H](CO)[C@@H](O)[C@H](O)[C@H]4O[C@@H]4O[C@H](CO)[C@@H](O)[C@H](O)[C@H]4O)C(C)(C)[C@@H]3CC[C@]12C [Rc, ginsenoside Rc] show?
[reply] 1.9 fold
